test: Half life in SPF ICR mouse at 25 mg/kg, po measured upto 24 hrs by HPLC analysis; type: ADME, organism-based; conditions: in vivo
Measured Quantity: half-life
# do not omit the unit; it follows the number

O=c1nc(N2CC3CCC2CN3Cc2ccc(F)cc2)sc2c([N+](=O)[O-])cc(C(F)(F)F)cc12 (stereo not drawn)    75 min
O=c1nc(N2CCN(CC3CCCCC3)CC2)sc2c([N+](=O)[O-])cc(C(F)(F)F)cc12    380 min

# context switch: different compound, same half-life
Problem: Please look up its half-life: `O=c1nc(N2CCC3(CCN(c4ccc(F)cc4)C3)CC2)sc2c([N+](=O)[O-])cc(C(F)(F)F)cc12`
Result: 287 min

====

target: hERG (KCNH2) (Homo sapiens, UniProt Q12809); assay: Inhibition of human ERG transfected in HEK293 cells at 10 uM by whole cell patch clamp assay relative to control; format: cell-based; details: HEK293 cells transfected with human ERG
Sequence (Q12809 whole entry): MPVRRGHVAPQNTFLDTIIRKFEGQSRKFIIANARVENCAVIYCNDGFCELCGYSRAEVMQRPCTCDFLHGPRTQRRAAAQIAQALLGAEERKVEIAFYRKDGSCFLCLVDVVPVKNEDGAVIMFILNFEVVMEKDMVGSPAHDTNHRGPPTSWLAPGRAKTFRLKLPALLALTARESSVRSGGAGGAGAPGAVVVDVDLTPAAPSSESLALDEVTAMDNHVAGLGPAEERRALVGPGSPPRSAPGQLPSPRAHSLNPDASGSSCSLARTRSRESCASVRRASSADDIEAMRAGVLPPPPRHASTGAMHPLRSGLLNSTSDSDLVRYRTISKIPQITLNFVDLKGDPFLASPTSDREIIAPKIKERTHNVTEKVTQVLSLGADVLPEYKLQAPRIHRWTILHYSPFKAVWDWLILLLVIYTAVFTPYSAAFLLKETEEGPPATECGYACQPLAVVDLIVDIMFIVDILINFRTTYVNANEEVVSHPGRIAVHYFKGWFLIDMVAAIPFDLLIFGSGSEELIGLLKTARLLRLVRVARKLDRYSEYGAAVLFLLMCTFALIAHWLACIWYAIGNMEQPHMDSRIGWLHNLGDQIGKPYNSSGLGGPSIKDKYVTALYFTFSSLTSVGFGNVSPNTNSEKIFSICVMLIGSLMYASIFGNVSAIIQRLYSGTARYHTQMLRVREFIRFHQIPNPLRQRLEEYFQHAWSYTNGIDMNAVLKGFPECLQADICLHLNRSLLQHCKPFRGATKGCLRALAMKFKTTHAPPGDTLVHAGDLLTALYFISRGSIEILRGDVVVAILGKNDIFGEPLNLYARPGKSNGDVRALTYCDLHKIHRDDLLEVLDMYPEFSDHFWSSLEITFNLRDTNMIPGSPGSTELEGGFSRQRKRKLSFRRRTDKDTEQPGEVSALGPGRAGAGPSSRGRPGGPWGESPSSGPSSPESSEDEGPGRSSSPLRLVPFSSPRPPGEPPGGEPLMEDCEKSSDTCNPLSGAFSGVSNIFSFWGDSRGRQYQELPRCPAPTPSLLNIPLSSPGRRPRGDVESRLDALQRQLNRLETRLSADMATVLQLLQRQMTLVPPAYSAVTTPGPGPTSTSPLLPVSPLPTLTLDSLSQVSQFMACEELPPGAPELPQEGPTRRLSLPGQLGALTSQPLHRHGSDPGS
// label = label 1 if inhibition at 10 µM is not less than 80%, otherwise label 0

O=c1nc(N2CC3CC2CN3Cc2ccc(F)cc2)sc2c([N+](=O)[O-])cc(C(F)(F)F)cc12 (stereo not drawn)    label 1

Problem: Please indicate if the recorded inhibition at 10 µM for `O=c1nc(N2CCC3(CCN(Cc4ccncc4)C3)CC2)sc2c([N+](=O)[O-])cc(C(F)(F)F)cc12` meets or exceeds 80%.
Result: label 0

Problem: Please indicate if the recorded inhibition at 10 µM for `N#Cc1ccc(CN2CCC3(CCN(c4nc(=O)c5cc(C(F)(F)F)cc([N+](=O)[O-])c5s4)CC3)C2)cc1` meets or exceeds 80%.
Result: label 1

Problem: Please indicate if the recorded inhibition at 10 µM for `O=c1nc(N2CCC3(CCN(Cc4ccc(C(F)(F)F)cc4)CC3)CC2)sc2c([N+](=O)[O-])cc(C(F)(F)F)cc12` meets or exceeds 80%.
Result: label 1

Problem: Please indicate if the recorded inhibition at 10 µM for CCC(c1ccc(C(F)(F)F)cc1)N1CCC2(CCN(c3nc(=O)c4cc(C(F)(F)F)cc([N+](=O)[O-])c4s3)CC2)CC1 (stereo not drawn) meets or exceeds 80%.
Result: label 0

Problem: Please indicate if the recorded inhibition at 10 µM for `O=c1nc(N2CCN(C3CCN(Cc4ccc(F)cc4)CC3)CC2)sc2c([N+](=O)[O-])cc(C(F)(F)F)cc12` meets or exceeds 80%.
Result: label 1

Problem: Please indicate if the recorded inhibition at 10 µM for `O=c1nc(N2CCC3(CCN(Cc4cccs4)C3)CC2)sc2c([N+](=O)[O-])cc(C(F)(F)F)cc12` meets or exceeds 80%.
Result: label 1

Problem: Please indicate if the recorded inhibition at 10 µM for `O=c1nc(N2CCC3(CCN(Cc4ccc(OC(F)(F)F)cc4)C3)CC2)sc2c([N+](=O)[O-])cc(C(F)(F)F)cc12` meets or exceeds 80%.
Result: label 1

Problem: Please indicate if the recorded inhibition at 10 µM for CC(c1ccc(Br)cc1)N1CCC2(CCN(c3nc(=O)c4cc(C(F)(F)F)cc([N+](=O)[O-])c4s3)CC2)CC1 (stereo not drawn) meets or exceeds 80%.
Result: label 0

Problem: Please indicate if the recorded inhibition at 10 µM for CC(c1ccc(C(F)(F)F)cc1)N1CCC2(CCN(c3nc(=O)c4cc(C(F)(F)F)cc([N+](=O)[O-])c4s3)CC2)CC1 (stereo not drawn) meets or exceeds 80%.
Result: label 0

Problem: Please indicate if the recorded inhibition at 10 µM for `O=c1nc(N2CCC3(CCN(Cc4ccc(Br)cc4)CC3)CC2)sc2c([N+](=O)[O-])cc(C(F)(F)F)cc12` meets or exceeds 80%.
Result: label 1

Problem: Please indicate if the recorded inhibition at 10 µM for CC(c1ccc(Cl)cc1)N1CCC2(CCN(c3nc(=O)c4cc(C(F)(F)F)cc([N+](=O)[O-])c4s3)CC2)CC1 (stereo not drawn) meets or exceeds 80%.
Result: label 0

Problem: Please indicate if the recorded inhibition at 10 µM for `O=c1nc(N2CCC3(CCN(Cc4ccc([N+](=O)[O-])cc4)C3)CC2)sc2c([N+](=O)[O-])cc(C(F)(F)F)cc12` meets or exceeds 80%.
Result: label 1

====

Below is a list of entries, each paired with its recorded inhibition at 10 µM value.
molecular target: hERG (KCNH2) (Homo sapiens, UniProt Q12809); assay: Inhibition of human ERG transfected in HEK293 cells at 10 uM by whole cell patch clamp assay relative to control; format: cell-based; conditions: HEK293 cells transfected with human ERG
# do not omit the unit; it follows the number

Answered examples (4):
O=c1nc(N2CCC3(CCN(c4ccc(F)cc4)C3)CC2)sc2c([N+](=O)[O-])cc(C(F)(F)F)cc12    23%
CC(c1ccc(F)cc1)N1CCC2(CCN(c3nc(=O)c4cc(C(F)(F)F)cc([N+](=O)[O-])c4s3)CC2)CC1 (configuration not stated)    74%
O=c1nc(N2CCC3(CCN(Cc4ccc5ccccc5c4)C3)CC2)sc2c([N+](=O)[O-])cc(C(F)(F)F)cc12    78.1%
O=c1nc(N2CCC3(CCN(CCCc4ccc(F)cc4)C3)CC2)sc2c([N+](=O)[O-])cc(C(F)(F)F)cc12    85.8%

Problem: Please look up its inhibition at 10 µM: `O=c1nc(N2CCC3(CCN(Cc4ccc(C(F)(F)F)cc4C(F)(F)F)C3)CC2)sc2c([N+](=O)[O-])cc(C(F)(F)F)cc12`
Result: 68.6%

Problem: Please look up its inhibition at 10 µM: `O=c1nc(N2CCC3(CCN(Cc4ccccc4F)C3)CC2)sc2c([N+](=O)[O-])cc(C(F)(F)F)cc12`
Result: 94.9%

Problem: Please look up its inhibition at 10 µM: `O=c1nc(N2CCC3(CCN(Cc4ccc(F)cc4)C3)CC2)sc2c([N+](=O)[O-])cc(C(F)(F)F)cc12`
Result: 95.7%
